The values you see were collected from patent US10301306B2.

Molecular target: RIPK3 (Homo sapiens (Human))
Assay: RIPK3 HTRF Kinase Assay
Format: binding
Details: RIPK3 1 nM; HTRF probe 23 nM; 60 min at room temperature; read-out: IC50 for Inhibition of RIPK3
pIC50: −log10 of the molar value.
measured-quantity: pIC50

{"columns": ["molecule", "pIC50"],
 "data": [
  ["N#Cc1cc(F)ccc1Cn1c2c(c(-c3ccc(Cl)s3)c1-c1ccncc1)C(=O)NCC2 [Example 130]", "> 7.52"],
  ["Cn1cc(-c2c3c(n(Cc4ccc(Cl)cc4F)c2-c2ccncc2)CCNC3=O)cn1 [Example 165]", "4.82 to 7.00"],
  ["CC(C)(C)CCn1c2c(c(-c3ccc(F)cc3)c1-c1ccncc1)C(=O)NCC2 [Example 75]", "> 7.52"],
  ["COc1cc(C(F)(F)F)ccc1Cn1c2c(c(-c3ccc(F)cc3)c1-c1ccncc1)C(=O)NCC2 [Example 67]", "7.00 to 7.51"],
  ["CCn1c2c(c(-c3ccc(F)cc3)c1-c1ccncc1)C(=O)NCC2 [Example 62]", "4.82 to 7.00"]
]}

Batch lookup, pIC50 per entry.
1. Cc1cc(Cn2c3c(c(-c4cccc(NC(=O)C5CC5)c4)c2-c2ccncc2)C(=O)NCC3)n(C)n1 [Example 177]
2. COc1ccc(-c2c3c(n(Cc4ccc(F)cc4C#N)c2-c2ccncc2)CCNC3=O)cc1OC [Example 113]
3. N#Cc1ccccc1Cn1c2c(c(-c3ccc(F)cc3)c1-c1ccncc1)C(=O)NCC2 [Example 68]

**Result**
1. 4.82 to 7.00
2. 4.82 to 7.00
3. > 7.52

---

Target: RIPK3 (Homo sapiens (Human), UniProt Q9Y572)
Sequence (Q9Y572 whole entry, species assumed): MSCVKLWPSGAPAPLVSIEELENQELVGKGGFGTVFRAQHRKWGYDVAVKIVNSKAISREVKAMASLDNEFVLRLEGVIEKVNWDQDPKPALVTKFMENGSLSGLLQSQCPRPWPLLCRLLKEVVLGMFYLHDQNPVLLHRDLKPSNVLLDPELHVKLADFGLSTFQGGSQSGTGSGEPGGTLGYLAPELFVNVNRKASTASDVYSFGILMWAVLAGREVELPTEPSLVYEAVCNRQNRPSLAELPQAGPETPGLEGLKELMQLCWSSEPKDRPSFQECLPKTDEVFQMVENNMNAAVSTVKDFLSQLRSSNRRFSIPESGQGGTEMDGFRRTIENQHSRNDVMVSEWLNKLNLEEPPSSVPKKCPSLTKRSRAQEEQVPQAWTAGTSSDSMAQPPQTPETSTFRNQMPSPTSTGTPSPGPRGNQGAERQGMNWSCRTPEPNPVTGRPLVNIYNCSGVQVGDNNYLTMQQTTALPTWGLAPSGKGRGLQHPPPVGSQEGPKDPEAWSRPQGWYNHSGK
Experiment: RIPK3 HTRF Kinase Assay
Assay type: binding
Settings: RIPK3 1 nM; HTRF probe 23 nM; 60 min at room temperature; read-out: IC50 for Inhibition of RIPK3
pIC50: −log10 of the molar value.
measured-quantity: pIC50

{"columns": ["sample-smiles", "measured-target", "result-value"],
 "data": [
  ["Cc1cc(Cn2c3c(c(-c4cccc(-c5c(C)noc5C)c4)c2-c2ccncc2)C(=O)NCC3)n(C)n1", "RIPK3 (Homo sapiens (Human), UniProt Q9Y572)", "4.82 to 7.00"],
  ["Cc1cc(Cn2c3c(c(-c4ccc(F)cc4)c2-c2ccncc2)C(=O)NCC3)n(C)n1", "RIPK3 (Homo sapiens (Human), UniProt Q9Y572)", "> 7.52"],
  ["N#Cc1cc(F)ccc1Cn1c2c(c(/C=C/c3ccccc3)c1-c1ccncc1)C(=O)NCC2", "RIPK3 (Homo sapiens (Human), UniProt Q9Y572)", "7.00 to 7.51"],
  ["N#Cc1cc(F)ccc1Cn1c2c(c(-c3cccc(Cl)c3Cl)c1-c1ccncc1)C(=O)NCC2", "RIPK3 (Homo sapiens (Human), UniProt Q9Y572)", "7.00 to 7.51"]
]}

Batch lookup, pIC50 per entry.
1. O=C1NCCc2c1c(-c1ccc(F)cc1)c(-c1ccncc1)n2Cc1ccc(C(F)(F)F)cc1F
2. N#Cc1cc(F)ccc1Cn1c2c(c(-c3cncc4ccccc34)c1-c1ccncc1)C(=O)NCC2
3. Cc1cc(Cn2c3c(c(-c4cccc(CCc5ccccc5)c4)c2-c2ccncc2)C(=O)NCC3)n(C)n1
4. CC1(C)CNC(=O)c2c(-c3ccc(F)cc3)c(-c3ccncc3)n(CC3CCOCC3)c21

**Result**
["> 7.52", "4.82 to 7.00", "4.82 to 7.00", "4.82 to 7.00"]
